experiment: qHTS assay to identify small molecule antagonists of the thyroid receptor (TR) signaling pathway - cell viability counter screen (AID 743064); settings: GH3.TRE-Luc viability, CellTiter-Fluor, 24 h; series mostly up to 70.3 µM; further: nearly all actives have a fitted effect of over 50% in size
Inconclusive results are not listed. The source made the active and inactive calls. The call rests on the fitted dose curve; in most records, active means well fitted cell-killing curve with a large enough effect in the repeat runs; inconclusive means weak or mixed curves, or effect the other way; inactive means no such curve, though single readings can be large or run the other way.
One label from this list, please: active, inactive

# count of solved cases: 6
{"compound": "CN1CCN(CCC(=O)N2c3ccccc3Sc3ccc(C(F)(F)F)cc32)CC1", "label": "active"}
{"compound": "OCCN1CCN(CC/C=C2/c3ccccc3Sc3ccc(C(F)(F)F)cc32)CC1", "label": "active"}
{"compound": "CCCCN(CCCC)c1ccc(C(=O)c2ccccc2C(=O)O)c(O)c1", "label": "active"}
{"compound": "CCCCCCCC/C=C\\CCCCCCCCOCCO", "label": "active"}
{"compound": "Oc1ccc(N=Nc2ccccc2)cc1", "label": "active"}
{"compound": "CC(C)c1ccc2c(c1)CC[C@H]1[C@](C)(CN)CCC[C@]21C", "label": "active"}

Could you check what this test reported for `C=C(C)C(=O)OCC[N+](C)(C)C` ?
active

Could you check what this test reported for `C1CCCC1` ?
inactive

Could you check what this test reported for `C[C@]12CCC(=O)C=C1CC[C@@H]1[C@@H]2[C@@H](O)C[C@@]2(C)[C@H]1CC[C@]2(O)C(=O)COC(=O)CCC(=O)O` ?
inactive
